Tested on: NCI-H522 lung
Experiment: NCI tumour cell line growth inhibition, 48 h
# TGI per entry

N#CC12CC(C=O)=C(N)C1(C#N)CC(C=O)=C2N (stereo unspecified)	> 100 µM
CCSC1=N/C(=C\c2ccco2)C(Nc2ccc(C)cc2)=N1	> 100 µM

Record for CCCC(=O)Nc1cc(/C=C/C(=O)N2CC(CCl)c3ccc([N+](=O)[O-])cc32)n(C)c1 (stereo unspecified) under target or system NCI-H522 lung: TGI reported as > 100 µM

Record for CN1/C(=C\N=O)C(C)(C)N(O)C1(C)C under target or system NCI-H522 lung: TGI reported as > 100 µM

Record for C[C@H](CCC(=O)O)[C@H]1CC[C@H]2[C@@H]3[C@@H](O)C[C@@H]4C[C@H](O)CC[C@]4(C)[C@H]3C[C@H](O)[C@]12C under target or system NCI-H522 lung: TGI reported as > 100 µM

Record for COc1ccc(OC)c(-c2cc(-c3ccc(Cl)cc3)nn2-c2ccccc2)c1 under target or system NCI-H522 lung: TGI reported as > 100 µM

Record for CCCCC1Nc2ccccc2-c2ccnc(Cl)c21 (stereo unspecified) under target or system NCI-H522 lung: TGI reported as 29.6 µM

Record for COc1ccc(-c2oc3ncnc(N)c3c2-c2ccc(NC(=O)Nc3cc(C(F)(F)F)ccc3F)cc2)cc1 under target or system NCI-H522 lung: TGI reported as 4.28 µM

* * *

Tested on: XF 498 CNS
Experiment: NCI tumour cell line growth inhibition, 48 h
MEASURED PROPERTY: TGI

Cc1ccc([N+](=O)[O-])cc1NC(=O)C(=O)Cc1nc2ccc(C(=O)c3ccccc3)cc2[nH]c1=O	> 100 µM
Cc1ccccc1SC(/C=C/NNC1=NC(c2ccccc2)C(c2ccccc2)=NN1)c1ccccc1 (centres undefined)	60.4 µM
CC1=C(O)C(=O)C2C(=O)C1C(C)C2c1ccccc1 (centres undefined)	> 100 µM

Note: attention shifts to another entry.
CON1C(=O)C2(CCCCC2)C(=O)C12C=CC(C)CC2 (centres undefined) has a reported TGI of > 100 µM

* * *

# GI50 per entry
Tested on: SK-MEL-2 melanoma
Experiment: NCI tumour cell line growth inhibition, 48 h

# count of solved cases: 3
COc1ccc(-c2oc3ncnc(N)c3c2-c2ccc(NC(=O)Nc3cc(C(F)(F)F)ccc3F)cc2)cc1	1.01 µM
O=C1/C(=C/c2ccc(Cl)cc2)N=C(c2ccccc2)N1c1cc(C(F)(F)F)ccc1Cl	17.5 µM
C[C@]12CC[C@@H]3c4ccc(O)cc4CC[C@H]3[C@@H]1CC(Cc1ccccc1)(Cc1ccccc1)C2=O	24.8 µM

Note: attention shifts to another entry.
Record for [Mn+3].[O-][Cl+3]([O-])([O-])O.[O-]c1ccccc1C=NCCN1CC1.[O-]c1ccccc1C=NCCN1CC1 under target or system SK-MEL-2 melanoma: GI50 reported as 48.5 µM

* * *

Tested on: NCI-H522 lung
Experiment: NCI tumour cell line growth inhibition, 48 h
# TGI per entry

# count of solved cases: 2
CC1=C(C(=O)O)N2C(=O)[C@@H](NC(=O)C(c3ccccc3)N3CSC(=S)N(C(C)C)C3)C2SC1 (stereo not given in full)	66.6 µM
C#Cc1cccc(Nc2nc(C)nc3cc(NC(=O)CCl)ccc23)c1	0.92 µM

O=C(Nc1ccc(Cl)cc1)c1cc(NCc2cc(O)ccc2O)ccc1O has a reported TGI of 1.88 µM

C=CCN=C1NC(=O)C(CC(=O)Nc2cccc(Cl)c2)S1 (stereo not given) has a reported TGI of > 100 µM

CCOC(=O)C1=NN(c2ccc(C)cc2)C2(c3ccccc3)C=C(c3ccccc3)N(C)CCN12 (stereo not given) has a reported TGI of > 100 µM

* * *

Tested on: HOP-62 NSCLC
Assay: NCI tumour cell line growth inhibition, 48 h
Where a SMILES comes first, the peptide text is derived from it.
# TGI per entry

# count of solved cases: 4
O=P(O)(O)c1ccc2c(c1)OCCOCCOCCOCCO2	> 100 µM
O=C1/C(=C/c2ccc(Cl)cc2)N=C(c2ccccc2)N1c1cc(C(F)(F)F)ccc1Cl	42.8 µM
CC(=O)NC(CS)C(=O)NC(CO)C(=O)NC(CO)C(=O)NC(Cc1c[nH]c2ccccc12)C(=O)N1CCCC1C(=O)NC(CO)C(=O)NC(Cc1c[nH]c2ccccc12)C(=O)NC(Cc1c[nH]cn1)C(=O)NC(CO)C(=O)NC(Cc1c[nH]c2ccccc12)C(=O)NCC(=O)NCC(=O)NC(C)C(=O)NC(CCC(N)=O)C(=O)NC(CCCCN)C(=O)NC(C)C(=O)NC(CCCNC(=N)N)C(=O)NC(CCCCN)C(N)=O (stereo not given) (Ac-CSSWPSWHSWGGAQKARK-NH2; configuration not given here)	> 50 µM
CCCC[n+]1ccn(-c2nc3ccccc3n2C)c1	> 100 µM

Note: attention shifts to another entry.
CC1=C/C(=N\NS(=O)(=O)c2ccc([N+](=O)[O-])cc2)CC(C)(C)C1 has a reported TGI of > 100 µM

* * *

Test system: EKVX NSCLC
Experiment: NCI tumour cell line growth inhibition, 48 h
# TGI per entry

Cc1ccc(NC(=O)CCc2nnc3s/c(=C\C=C\c4ccccc4)c(=O)n23)cc1 has a reported TGI of > 100 µM

* * *

System: K-562 leukemia
Experiment: NCI tumour cell line growth inhibition, 48 h
# TGI per entry

# count of solved cases: 5
C=C1C2CC(OC(C)=O)C3(C)C(c4ccoc4)OC(=O)[C@@H](O)[C@]13OC1C[C@H](OC(C)=O)C(C)(C)[C@H](C(O)C(=O)OC)[C@]12C (stereo not given in full)	> 100 µM
CCCCCCCCCCNC(=S)OC	> 100 µM
CCCCCCCC(=O)Nc1nc2[nH]c(CN3CCN(Cc4cccc(I)c4)CC3)c(CN3CCN(Cc4cccc(I)c4)CC3)c2c(=O)[nH]1	10.8 µM
COC(=O)c1ccc(NCC2=CC(=O)C=CC2=O)cc1O	> 100 µM
COC(=O)CC(C(C(=O)OCc1ccccc1)C(C)O)N1C(=O)OCC1c1ccccc1 (stereo not given)	> 100 µM

Record for C[n+]1c2ccccc2n2c3ccccc3c(NCc3ccco3)c(C#N)c21 under target or system K-562 leukemia: TGI reported as > 21.1 µM

Record for COc1ccc2c(c1)C(=O)c1c-2n(CCCN=[N+]=[N-])c(=O)c2cc([N+](=O)[O-])ccc12 under target or system K-562 leukemia: TGI reported as 16.3 µM

Record for CCOc1cc2c(cc1O)C=C[C@@H]1[C@@H]2CC[C@]2(C)[C@@H](O)CC[C@@H]12 under target or system K-562 leukemia: TGI reported as > 100 µM

Record for CC(=O)NNc1ncc(C(=O)/C=C/c2ccccc2C)s1 under target or system K-562 leukemia: TGI reported as > 100 µM

Record for C1=C2C3=[N+](CCCC3)CC2Cc2sccc21 (stereo not given) under target or system K-562 leukemia: TGI reported as > 100 µM

* * *

Tested on: M14 melanoma
Assay: NCI tumour cell line growth inhibition, 48 h
# TGI per entry
Reply numerically in µM, unit not repeated.

C[C@@H](c1ccccc1)N1C[C@@H](c2ccc3c(c2)OCO3)[C@@H]2C(=O)CCC[C@@H]21 has a reported TGI of 36.9

* * *

System: SK-MEL-28 melanoma
Test: NCI tumour cell line growth inhibition, 48 h
MEASURED PROPERTY: TGI

CC1CCCc2c1n[nH]c2CC1CC(=O)NC(=O)C1 (configuration not stated)	> 100 µM

CCCCC1Nc2ccccc2-c2ccnc(Cl)c21 (configuration not stated) has a reported TGI of 46.5 µM

CCCCCCCCCCNC(=S)OC has a reported TGI of > 100 µM

O=C(CSc1nc2ccc(I)cc2c(=O)n1Cc1ccccc1)NNC(=S)Nc1ccccc1 has a reported TGI of > 100 µM

C[C@]1(c2nc3c(C(N)=O)cccc3[nH]2)CCCN1 has a reported TGI of > 100 µM

Cc1cc(C)c([I+]c2c(C)cc(C)cc2C)c(C)c1 has a reported TGI of 2.08 µM

N#Cc1ccc2[nH]cc(Cc3c[nH]c4ccc(C#N)cc34)c2c1 has a reported TGI of > 50 µM

* * *

# TGI per entry
Tested on: SNB-19 CNS
Assay: NCI tumour cell line growth inhibition, 48 h

# count of solved cases: 4
C[C@]12CC[C@@H]3c4ccc(O)cc4CC[C@H]3[C@@H]1CC(Cc1ccccc1)(Cc1ccccc1)C2=O	34.5 µM
CC1CN=C(N(C(=O)Nc2ccc(Cl)cc2)c2cccc(Cl)c2)S1 (configuration not stated)	> 100 µM
CCN(CC)CCOCCOCC1(c2ccc(Cl)c(Cl)c2)CCCCC1	26.4 µM
N[C@@H](Cc1c[nH]c2ccccc12)C(=O)NC1CCN(Cc2c[nH]c3ccc(Cl)cc23)CC1	23.9 µM

CCCC(=O)Oc1ccc(/C=N/NC(N)=S)nc1 has a reported TGI of > 100 µM

Cc1cc(OP2(=O)NCc3ccncc3O2)ccc1Cl (configuration not stated) has a reported TGI of > 100 µM

COC(=O)C(/C(=N/N)C(=O)Nc1cc(Cl)ccc1Cl)c1nc2ccc([N+](=O)[O-])cc2[nH]c1=O (configuration not stated) has a reported TGI of > 100 µM

CCOC(=O)C(=CNc1ccc(S(N)(=O)=O)cc1)C(=O)OCC has a reported TGI of > 100 µM

CON1C(=O)C2(CCCCC2)C(=O)C12C=CC(C)CC2 (configuration not stated) has a reported TGI of > 100 µM

CC[C@H](C)[C@H](NC(=O)c1ncccn1)C(=O)N(C)[C@H](C[C@@H](OC(C)=O)c1nc(C(=O)N[C@@H](Cc2ccccc2)C[C@H](C)C(=O)OC)cs1)C(C)C has a reported TGI of > 25 µM

CC12CP(=O)(O)CC1C2(Cl)Cl (configuration not stated) has a reported TGI of > 100 µM

CCSC1=N/C(=C\c2ccco2)C(Nc2ccc(C)cc2)=N1 has a reported TGI of > 100 µM

O=C(N/C(=C\c1cccc([N+](=O)[O-])c1)c1nc2c3c(ccc2[nH]1)C(=O)c1ccccc1C3=O)c1ccccc1 has a reported TGI of > 100 µM

CC(C)(C)OC(=O)NC(Cc1ccccc1)C(=S)N1CCCC1 (configuration not stated) has a reported TGI of > 100 µM

Cn1cnc(SC2=CC(=O)C=C3S[C@H]4C[C@@]23c2c(c(O)c3c5c2=NCCC=5C=N3)N4)c1CC(N)C(=O)O (some centres not stated) has a reported TGI of 33.5 µM

CCCC(=O)Oc1c2ccsc2c(OC(=O)CCC)c2ccsc12 has a reported TGI of 5.28 µM

NC1=C(O)/C(=N/NS(=O)(=O)c2ccccc2)C(c2ccc3c(c2)OCO3)O1 (configuration not stated) has a reported TGI of > 100 µM

CC(C)(C)c1cc[n+](C[n+]2ccc(C(C)(C)C)cc2)cc1 has a reported TGI of > 100 µM

COc1ccc2c(c1)c1ccc3c(c1n2C)C(=O)C=CC3=O has a reported TGI of 53 µM

O=C1NN(C(=O)c2ccccc2)C(c2ccc(Cl)c(Cl)c2)=C/C1=C\c1ccccc1[N+](=O)[O-] has a reported TGI of > 6.75 µM

COC(=O)Cc1cccc2c(=O)c(S(=O)(=O)NC(=O)Nc3ccc(Cl)cc3)c(-c3ccccc3)oc12 has a reported TGI of > 100 µM

COc1ccc(N[C@H](CS(=O)c2ccc(C)cc2)C(F)(F)F)cc1 (some centres not stated) has a reported TGI of > 100 µM

COc1cccc(/C=C2\N=C(Cl)OC2=O)c1O has a reported TGI of > 100 µM

CSc1ccc(Cc2cc(C(C)(C)C)cc(C(C)(C)C)c2O)cc1 has a reported TGI of 29.9 µM

COC(Cc1cc(C(O)(c2ccc(C(C)(C)C)cc2)c2cc(CC(OC)(c3cc(C(OC)(c4ccc(C(C)(C)C)cc4)c4ccc(C(C)(C)C)cc4)c(C)cc3C)c3cc(C(OC)(c4ccc(C(C)(C)C)cc4)c4ccc(C(C)(C)C)cc4)c(C)cc3C)c(C)cc2C)c(C)cc1C)(c1cc(C(OC)(c2ccc(C(C)(C)C)cc2)c2ccc(C(C)(C)C)cc2)c(C)cc1C)c1cc(C(OC)(c2ccc(C(C)(C)C)cc2)c2ccc(C(C)(C)C)cc2)c(C)cc1C has a reported TGI of > 75 µM

Nc1nncc2n[nH]nc12 has a reported TGI of > 100 µM

Cn1cc(-c2ncnc3ccc(-c4cnc(Cl)c(NS(C)(=O)=O)c4)cc23)c2ccccc21 has a reported TGI of 23.4 µM

C[C@H](CCC(=O)O)[C@H]1CC[C@H]2[C@@H]3[C@H](O)[C@H](O)[C@@H]4C[C@H](O)CC[C@]4(C)[C@H]3CC[C@]12C has a reported TGI of > 100 µM
